PROTOCOL_SUMMARY: physchem
ASSAY_ENDPOINT: chromatographic logP

test_smiles=COc1ccc2c(c1)c(CC(=O)O)c(C)n2C(=O)c1ccc(Cl)cc1 assay_endpoint="chromatographic logP" result=3.31

* * *

ASSAYED_SYSTEM: human serum albumin (HSA) (Homo sapiens)
Sequence (P02768 25-609): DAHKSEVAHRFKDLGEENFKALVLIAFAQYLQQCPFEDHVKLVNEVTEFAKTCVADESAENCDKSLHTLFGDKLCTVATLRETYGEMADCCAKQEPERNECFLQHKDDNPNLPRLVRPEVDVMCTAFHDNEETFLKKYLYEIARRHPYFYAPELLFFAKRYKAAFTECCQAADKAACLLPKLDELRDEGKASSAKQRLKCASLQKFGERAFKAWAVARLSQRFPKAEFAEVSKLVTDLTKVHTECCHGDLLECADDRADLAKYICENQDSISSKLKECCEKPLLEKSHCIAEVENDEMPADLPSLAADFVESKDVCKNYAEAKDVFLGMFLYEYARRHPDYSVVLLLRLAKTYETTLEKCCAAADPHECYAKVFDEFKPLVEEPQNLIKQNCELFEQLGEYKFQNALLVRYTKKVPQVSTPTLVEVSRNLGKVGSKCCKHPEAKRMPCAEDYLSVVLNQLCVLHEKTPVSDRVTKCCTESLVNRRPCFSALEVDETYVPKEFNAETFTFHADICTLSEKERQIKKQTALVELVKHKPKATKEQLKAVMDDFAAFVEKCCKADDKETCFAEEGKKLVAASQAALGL
PROTOCOL_SUMMARY: Protein binding on Chiralpak HSA HPLC column
PROTOCOL_CONDITIONS: pH 7.4, Chiralpak HSA
ASSAY_ENDPOINT: log k HSA

compound="CCCCN1CCCCC1C(=O)Nc1c(C)cccc1C (stereo not drawn)" assay_endpoint="log k HSA" result=-0.10
compound="OC(c1cc(C(F)(F)F)nc2c(C(F)(F)F)cccc12)C1CCCCN1 (stereo not drawn)" assay_endpoint="log k HSA" result=1.38
compound="CN1C2CCCC1CC(NC(=O)c1nn(C)c3ccccc13)C2 (stereo not drawn)" assay_endpoint="log k HSA" result=0.34
compound="CN(CCOc1ccc(NS(C)(=O)=O)cc1)CCc1ccc(NS(C)(=O)=O)cc1 [Dofetilide]" assay_endpoint="log k HSA" result=-0.05
compound="O=c1[nH]c2ccccc2n1C1CCN(CCCC(c2ccc(F)cc2)c2ccc(F)cc2)CC1 [Pimozide]" assay_endpoint="log k HSA" result=1.41
compound=CCOc1ccccc1OCCN[C@H](C)Cc1ccc(OC)c(S(N)(=O)=O)c1 assay_endpoint="log k HSA" result=0.36
compound=O=c1[nH]c2ccccc2n1CCCN1CCC(n2c(=O)[nH]c3cc(Cl)ccc32)CC1 assay_endpoint="log k HSA" result=1.02
compound="CCCN1C[C@H](CSC)C[C@@H]2c3cccc4[nH]cc(c34)C[C@H]21 [Pergolide]" assay_endpoint="log k HSA" result=0.73
compound="CN(C)CCC(c1ccc(Br)cc1)c1ccccn1 (stereo not drawn)" assay_endpoint="log k HSA" result=0.68
compound=O=C(CCCN1CC=C(n2c(=O)[nH]c3ccccc32)CC1)c1ccc(F)cc1 assay_endpoint="log k HSA" result=0.98
compound=CC[C@H]1OC(=O)[C@H](C)[C@@H](O[C@H]2C[C@@](C)(OC)[C@@H](O)[C@H](C)O2)[C@H](C)[C@@H](O[C@@H]2O[C@H](C)C[C@H](N(C)C)[C@H]2O)[C@](C)(OC)C[C@@H](C)C(=O)[C@H](C)[C@@H](O)[C@]1(C)O assay_endpoint="log k HSA" result=-0.24
compound="O=C(NCC1CCCCN1)c1cc(OCC(F)(F)F)ccc1OCC(F)(F)F (stereo not drawn) [Flecainide]" assay_endpoint="log k HSA" result=-0.05
compound=CCCOC(C(=O)OC1CCN(C)CC1)(c1ccccc1)c1ccccc1 assay_endpoint="log k HSA" result=1.01
compound="COC(=O)C1=C(C)NC(C)=C(C(=O)OC(C)C)C1c1cccc2nonc12 (stereo not drawn)" assay_endpoint="log k HSA" result=1.19
compound=CC[C@H]1OC(=O)[C@H](C)[C@@H](O[C@H]2C[C@@](C)(OC)[C@@H](O)[C@H](C)O2)[C@H](C)[C@@H](O[C@@H]2O[C@H](C)C[C@H](N(C)C)[C@H]2O)[C@](C)(O)C[C@@H](C)/C(=N\OCOCCOC)[C@H](C)[C@@H](O)[C@]1(C)O assay_endpoint="log k HSA" result=-0.07

* * *

PROTOCOL_SUMMARY: CHI lipophilicity by gradient reversed-phase HPLC (Gemini NX-C-18)
PROTOCOL_CONDITIONS: Gemini NX-C-18 reversed-phase HPLC column, pH 7.4
ASSAY_ENDPOINT: chromatographic logD

compound="CC[C@H]1OC(=O)[C@H](C)[C@@H](O[C@H]2C[C@@](C)(OC)[C@@H](O)[C@H](C)O2)[C@H](C)[C@@H](O[C@@H]2O[C@H](C)C[C@H](N(C)C)[C@H]2O)[C@](C)(OC)C[C@@H](C)C(=O)[C@H](C)[C@@H](O)[C@]1(C)O [Clarithromycin]" assay_endpoint="chromatographic logD" result=1.9
compound="O=C(CCCN1CC=C(n2c(=O)[nH]c3ccccc32)CC1)c1ccc(F)cc1 [Droperidol]" assay_endpoint="chromatographic logD" result=2.26
compound="C[C@H]1COc2c(N3CCN(C)CC3)c(F)cc3c(=O)c(C(=O)O)cn1c23 [Levofloxacin]" assay_endpoint="chromatographic logD" result=0.54
compound="Cc1ccc(O)c([C@H](CCN(C(C)C)C(C)C)c2ccccc2)c1 [Tolterodine]" assay_endpoint="chromatographic logD" result=2
compound="OCCN1CCN(CCCN2c3ccccc3Sc3ccc(Cl)cc32)CC1 [Perphenazine]" assay_endpoint="chromatographic logD" result=2.92
compound="Cc1nccn1CC1CCc2c(c3ccccc3n2C)C1=O (stereo not drawn) [Ondansetron]" assay_endpoint="chromatographic logD" result=1.33
compound="CN1CCC[C@@H]1CCO[C@](C)(c1ccccc1)c1ccc(Cl)cc1 [Clemastine]" assay_endpoint="chromatographic logD" result=3.18
compound="CSc1ccc2c(c1)N(CCC1CCCCN1C)c1ccccc1S2 (stereo not drawn) [Thioridazine]" assay_endpoint="chromatographic logD" result=3.02
compound="CCCc1nn(C)c2c(=O)[nH]c(-c3cc(S(=O)(=O)N4CCN(C)CC4)ccc3OCC)nc12 [Sildenafil]" assay_endpoint="chromatographic logD" result=2.59
compound="COc1cc(N)c(Cl)cc1C(=O)NC1CCN(CCCOc2ccc(F)cc2)CC1OC (stereo not drawn) [Cisapride]" assay_endpoint="chromatographic logD" result=2.65
compound="COC(=O)C1=C(C)NC(C)=C(C(=O)OC(C)C)C1c1cccc2nonc12 (stereo not drawn) [Isradipine]" assay_endpoint="chromatographic logD" result=3.25
compound="COCCc1ccc(OCC(O)CNC(C)C)cc1 (stereo not drawn) [Metoprolol]" assay_endpoint="chromatographic logD" result=0.77
compound="CN(C)CCC(c1ccc(Br)cc1)c1ccccn1 (stereo not drawn) [Brompheniramine]" assay_endpoint="chromatographic logD" result=1.74
compound="CC(=O)S[C@@H]1CC2=CC(=O)CC[C@]2(C)[C@H]2CC[C@@]3(C)[C@@H](CC[C@@]34CCC(=O)O4)[C@H]12 [Spironolactone]" assay_endpoint="chromatographic logD" result=2.76
compound="CN(CCOc1ccc(NS(C)(=O)=O)cc1)CCc1ccc(NS(C)(=O)=O)cc1 [Dofetilide]" assay_endpoint="chromatographic logD" result=1.18
compound="CCOc1ccccc1OCCN[C@H](C)Cc1ccc(OC)c(S(N)(=O)=O)c1 [Tamsulosin]" assay_endpoint="chromatographic logD" result=1.43
compound="CC1COc2c(N3CCN(C)CC3)c(F)cc3c(=O)c(C(=O)O)cn1c23 (stereo not drawn) [Ofloxacin]" assay_endpoint="chromatographic logD" result=0.53
compound="CNCCCC12CCC(c3ccccc31)c1ccccc12 [Maprotiline]" assay_endpoint="chromatographic logD" result=2.03

* * *

PROTOCOL_SUMMARY: Charge character of the drugs at pH 7.4
Type: physicochemical
ASSAY_ENDPOINT: Charge

compound=CNCCCC1c2ccccc2C=Cc2ccccc21 assay_endpoint=Charge result="Weak Base"
compound="CN(CCOc1ccc(NS(C)(=O)=O)cc1)CCc1ccc(NS(C)(=O)=O)cc1 [Dofetilide]" assay_endpoint=Charge result="Weak Base"
compound="O=c1[nH]c2ccccc2n1C1CCN(CCCC(c2ccc(F)cc2)c2ccc(F)cc2)CC1 [Pimozide]" assay_endpoint=Charge result="Weak Base"
compound=CCOc1ccccc1OCCN[C@H](C)Cc1ccc(OC)c(S(N)(=O)=O)c1 assay_endpoint=Charge result=Basic
compound="CC(C)NCC(O)COc1cccc2ccccc12 (stereo not drawn)" assay_endpoint=Charge result=Basic
compound="OC(c1cc(C(F)(F)F)nc2c(C(F)(F)F)cccc12)C1CCCCN1 (stereo not drawn)" assay_endpoint=Charge result=Basic
compound=CCCc1nn(C)c2c(=O)[nH]c(-c3cc(S(=O)(=O)N4CCN(C)CC4)ccc3OCC)nc12 assay_endpoint=Charge result="Weak Base"
compound=CNCCCC12CCC(c3ccccc31)c1ccccc12 assay_endpoint=Charge result=Basic

* * *

PROTOCOL_SUMMARY: Phospholipid binding at pH 7.4 on IAM PC.DD2 HPLC column
Format: physicochemical
Parameters: key: approximates acetonitrile concentration (%) in mobile phase at elution
PROTOCOL_CONDITIONS: pH 7.4
Label satisfied for high-side CHI IAM (at or above 40) and not satisfied for low-side CHI IAM (below it).

compound=COc1ccc(CN(CCN(C)C)c2ccccn2)cc1 category_label=satisfied
compound=CC[C@H]1OC(=O)[C@H](C)[C@@H](O[C@H]2C[C@@](C)(OC)[C@@H](O)[C@H](C)O2)[C@H](C)[C@@H](O[C@@H]2O[C@H](C)C[C@H](N(C)C)[C@H]2O)[C@](C)(O)C[C@@H](C)/C(=N\OCOCCOC)[C@H](C)[C@@H](O)[C@]1(C)O category_label=satisfied
compound=CCCCN1CCCC[C@H]1C(=O)Nc1c(C)cccc1C category_label=satisfied
compound=CC(C)(C)NC(=O)[C@@H]1C[C@@H]2CCCC[C@@H]2CN1C[C@@H](O)[C@H](Cc1ccccc1)NC(=O)[C@H](CC(N)=O)NC(=O)c1ccc2ccccc2n1 category_label=satisfied
compound=CC(=O)S[C@@H]1CC2=CC(=O)CC[C@]2(C)[C@H]2CC[C@@]3(C)[C@@H](CC[C@@]34CCC(=O)O4)[C@H]12 category_label="not satisfied"
compound="NC(=O)N1c2ccccc2C=Cc2ccccc21 [Carbamazepine]" category_label="not satisfied"
compound="CCC1=C(C)CN(C(=O)NCCc2ccc(S(=O)(=O)NC(=O)N[C@H]3CC[C@H](C)CC3)cc2)C1=O [Glimepiride]" category_label="not satisfied"
compound="CCn1cc(C(=O)O)c(=O)c2cc(F)c(N3CCNC(C)C3)c(F)c21 (stereo not drawn)" category_label="not satisfied"
compound=CCCCC1=NC2(CCCC2)C(=O)N1Cc1ccc(-c2ccccc2-c2nnn[nH]2)cc1 category_label="not satisfied"
compound=O=C1Cc2cc(CCN3CCN(c4nsc5ccccc45)CC3)c(Cl)cc2N1 category_label=satisfied
compound=C[C@H]1COc2c(N3CCN(C)CC3)c(F)cc3c(=O)c(C(=O)O)cn1c23 category_label="not satisfied"
compound=CC[C@H](C)C(=O)O[C@H]1C[C@@H](C)C=C2C=C[C@H](C)[C@H](CC[C@@H]3C[C@@H](O)CC(=O)O3)[C@H]21 category_label=satisfied
compound=CCCc1nn(C)c2c(=O)[nH]c(-c3cc(S(=O)(=O)N4CCN(C)CC4)ccc3OCC)nc12 category_label="not satisfied"
compound="COCCc1ccc(OCC(O)CNC(C)C)cc1 (stereo not drawn)" category_label="not satisfied"

Where these numbers come from: paper PMC8920097
